Parameter: Time. Scope: all listed entries.
test system: Mus musculus; assay: Gastrointestinal toxicity in mouse assessed as tail bleeding time at 200 mg/kg, po after 45 mins; assay type: organism-based; set-up: dose 200 mg/kg, route oral; settings: in vivo, 0.75 h
Give the number; s is assumed, so skip it.

Illustrative cases are given below, each with its answer.
- Mol: "N[C@H]1CCCO[C@@H](c2ccc([N+](=O)[O-])cc2)OC1"
  Experimental System: "Mus musculus"
  Time / s: 119
- Mol: "N[C@H]1CO[C@H](c2ccccc2)OC1"
  Experimental System: "Mus musculus"
  Time / s: 119.2

# input compound: C[C@@H]1O[C@H](c2ccccc2)OC[C@H]1N ; wanted: its Time
118.9

Entry N[C@H]1CCCO[C@H](c2cccc([N+](=O)[O-])c2)OC1 has what Time?
117.9

Need Time of N[C@H]1CCO[C@@H](c2ccc(Cl)cc2)OC1 , thanks.
119.6

For N[C@H]1CCO[C@H](c2ccc(Cl)cc2)OC1 , what is its reported Time?
118.5

Recorded Time of N[C@H]1CO[C@H](c2ccc(Cl)cc2)OC1 , please.
118.9

Can you share its Time? I mean this compound: C[C@@H]1O[C@@H](C=Cc2ccccc2)OC[C@H]1N
118.6

Which Time is reported for this compound? C[C@@H]1O[C@@H](c2ccc([N+](=O)[O-])cc2)OC[C@H]1N
119.2

Please report the recorded Time for N[C@H]1CO[C@@H](c2ccc([N+](=O)[O-])cc2)OC1 .
118.7

###

test: Permeability from basolateral to apical side of human Caco-2 cell membrane; format: ADME, cell-based
Value Kind: Papp B→A

- Mol: "C[C@@H]1O[C@H](c2ccc(Cl)cc2)OC[C@H]1NC(=O)Cc1ccccc1"
  Papp B→A: "6.86 ×10⁻⁶ cm/s"
- Mol: "C[C@@H]1O[C@@H](c2ccc(Cl)cc2)OC[C@H]1NC(=O)Cc1ccccc1"
  Papp B→A: "7 ×10⁻⁶ cm/s"
- Mol: "C[C@@H]1O[C@H](C=Cc2ccccc2)OC[C@H]1N"
  Papp B→A: "7.06 ×10⁻⁶ cm/s"

API: the following record is the query input.
What does the record list as Papp B→A for C[C@@H]1O[C@H](c2ccc([N+](=O)[O-])cc2)OC[C@H]1N ?
6.9 ×10⁻⁶ cm/s

###

test system: Caco-2; assay: Ratio of permeability from apical to basolateral side over basolateral to apical side of human Caco-2 cell membrane; type: ADME, cell-based
Value Kind: Ratio
Respond using a number only.

- Mol: "C[C@@H]1O[C@H](/C=C/c2ccccc2)OC[C@H]1NC(=O)Cc1ccccc1"
  Experimental System: "Caco-2"
  Test Value: 1.23
- Mol: "C[C@@H]1O[C@@H](c2ccc(Cl)cc2)OC[C@H]1N"
  Experimental System: "Caco-2"
  Test Value: 1.7
- Mol: "C[C@@H]1O[C@H](c2ccc([N+](=O)[O-])cc2)OC[C@H]1N"
  Experimental System: "Caco-2"
  Test Value: 1.86
- Mol: "O=C(Cc1ccccc1)N[C@H]1CO[C@H](/C=C/c2ccccc2)OC1"
  Experimental System: "Caco-2"
  Test Value: 1.21
- Mol: "O=C(Cc1ccccc1)N[C@H]1CO[C@@H](/C=C/c2ccccc2)OC1"
  Experimental System: "Caco-2"
  Test Value: 1.14

Param item = C[C@@H]1O[C@H](c2ccc(Cl)cc2)OC[C@H]1N ; retrieve measured Ratio.
1.7

###

Parameter Time: see the listing below.
tested on: Mus musculus; experiment: Gastrointestinal toxicity in mouse assessed as tail bleeding time at 200 mg/kg, po after 90 mins; type: organism-based; set-up: dose 200 mg/kg, route oral; settings: in vivo, 1.5 h
# unit: s | format: bare number

- Mol: "Cc1ccc([C@H]2OC[C@H](N)CO2)cc1"
  Experimental System: "Mus musculus"
  Time / s: 117.8
- Mol: "N[C@H]1CCO[C@H](c2ccc(Cl)cc2)OC1"
  Experimental System: "Mus musculus"
  Time / s: 118.6
- Mol: "N[C@H]1CCO[C@@H](c2ccc(Cl)cc2)OC1"
  Experimental System: "Mus musculus"
  Time / s: 119
- Mol: "N[C@H]1CO[C@H](c2ccc(Cl)cc2)OC1"
  Experimental System: "Mus musculus"
  Time / s: 119.6
- Mol: "N[C@H]1CCO[C@@H](c2cccc([N+](=O)[O-])c2)OC1"
  Experimental System: "Mus musculus"
  Time / s: 118.6
- Mol: "C[C@@H]1O[C@@H](C=Cc2ccccc2)OC[C@H]1N"
  Experimental System: "Mus musculus"
  Time / s: 119.2
- Mol: "N[C@H]1CO[C@H](c2ccc([N+](=O)[O-])cc2)OC1"
  Experimental System: "Mus musculus"
  Time / s: 118.9

Below: the item to evaluate.
Please report the recorded Time for N[C@H]1CCO[C@H](c2cccc([N+](=O)[O-])c2)OC1 .
118.5

###

Entries and their Time
system: Mus musculus; test: Gastrointestinal toxicity in mouse assessed as tail bleeding time at 200 mg/kg, po after 60 mins; format: organism-based; set-up: dose 200 mg/kg, route oral; settings: in vivo, 1 h
Express the result in s but write the number alone.

- Mol: "N[C@H]1CCO[C@@H](c2ccc(Cl)cc2)OC1"
  Readout Units: "s"
  Time: 118.6
- Mol: "C[C@@H]1O[C@H](c2ccccc2)OC[C@H]1N"
  Readout Units: "s"
  Time: 118.6
- Mol: "N[C@H]1CO[C@@H](c2cccc([N+](=O)[O-])c2)OC1"
  Readout Units: "s"
  Time: 119.1
- Mol: "N[C@H]1CCCO[C@H](c2cccc([N+](=O)[O-])c2)OC1"
  Readout Units: "s"
  Time: 121.5

What does the data say about its Time? Entry: N[C@H]1CO[C@H](c2ccc(Cl)cc2)OC1
118.7

Give the measured Time of N[C@H]1CO[C@@H](c2ccc([N+](=O)[O-])cc2)OC1 .
120.6

Quick one: Time of Cc1ccc([C@@H]2OC[C@@H](N)[C@H](C)O2)cc1 ?
118.9

GET /values?readout=Time&item= N[C@H]1CO[C@@H](c2ccccc2)OC1
117.6

Would you kindly share the measured Time for C[C@@H]1O[C@@H](c2cccc([N+](=O)[O-])c2)OC[C@H]1N ?
117.4

What measured Time goes with C[C@@H]1O[C@@H](c2ccc(Cl)cc2)OC[C@H]1N ?
118.5

Fill blank: measured Time of the compound N[C@H]1CCO[C@H](c2cccc([N+](=O)[O-])c2)OC1 is ____.
119

Quick check: Time of C[C@@H]1O[C@H](c2cccc([N+](=O)[O-])c2)OC[C@H]1N ?
119.5

###

test: Permeability from basolateral to apical side of human Caco-2 cell membrane; assay type: ADME, cell-based
Value Kind: Papp B→A

Sample records with Papp B→A:
- Mol: "O=C(Cc1ccccc1)N[C@H]1CO[C@H](/C=C/c2ccccc2)OC1"
  Test Value: "7.32 ×10⁻⁶ cm/s"
- Mol: "O=C(Cc1ccccc1)N[C@H]1CO[C@@H](/C=C/c2ccccc2)OC1"
  Test Value: "7.87 ×10⁻⁶ cm/s"
- Mol: "C[C@@H]1O[C@H](c2ccc([N+](=O)[O-])cc2)OC[C@H]1NC(=O)Cc1ccccc1"
  Test Value: "6.93 ×10⁻⁶ cm/s"

Kindly review the next molecule as well.
Requested read-out: Papp B→A. Entry: C[C@@H]1O[C@@H](c2ccc(Cl)cc2)OC[C@H]1N
7.01 ×10⁻⁶ cm/s

###

system: Mus musculus; assay: Gastrointestinal toxicity in mouse assessed as tail bleeding time at 200 mg/kg, po after 60 mins; assay type: organism-based; set-up: dose 200 mg/kg, route oral; settings: in vivo, 1 h
Value Kind: Time (s)
Write it as a number; the unit s goes unstated.

// solved cases for Time follow
- Mol: "Cc1ccc([C@H]2OC[C@@H](N)CO2)cc1"
  Value Kind: "Time"
  Readout Units: "s"
  Test Value: 118.7
- Mol: "N[C@H]1CO[C@H](c2ccc([N+](=O)[O-])cc2)OC1"
  Value Kind: "Time"
  Readout Units: "s"
  Test Value: 118.6
- Mol: "C[C@@H]1O[C@@H](c2ccc([N+](=O)[O-])cc2)OC[C@H]1N"
  Value Kind: "Time"
  Readout Units: "s"
  Test Value: 117.2

Item: C[C@@H]1O[C@H](c2ccc([N+](=O)[O-])cc2)OC[C@H]1N Test system: Mus musculus Read-out: Time Value: ?
118.8

Give recorded Time with Mus musculus for the following molecule: N[C@H]1CCO[C@H](c2ccc(Cl)cc2)OC1
119.2

Report Time for N[C@H]1CCCO[C@H](c2ccc(Cl)cc2)OC1 tested on Mus musculus.
119.1

// map N[C@H]1CCO[C@@H](c2ccc([N+](=O)[O-])cc2)OC1 to recorded Time (system: Mus musculus)
117.9

Form entry - test system: Mus musculus; read-out: Time; molecule: N[C@H]1CCCO[C@@H](c2cccc([N+](=O)[O-])c2)OC1
118.5

Value source: ChEMBL document CHEMBL1140692
